# test-system: Angiotensin II receptor (AT-1) type-1 (Rattus norvegicus, UniProt P29089+P25095)
# Sequence (P29089 whole entry): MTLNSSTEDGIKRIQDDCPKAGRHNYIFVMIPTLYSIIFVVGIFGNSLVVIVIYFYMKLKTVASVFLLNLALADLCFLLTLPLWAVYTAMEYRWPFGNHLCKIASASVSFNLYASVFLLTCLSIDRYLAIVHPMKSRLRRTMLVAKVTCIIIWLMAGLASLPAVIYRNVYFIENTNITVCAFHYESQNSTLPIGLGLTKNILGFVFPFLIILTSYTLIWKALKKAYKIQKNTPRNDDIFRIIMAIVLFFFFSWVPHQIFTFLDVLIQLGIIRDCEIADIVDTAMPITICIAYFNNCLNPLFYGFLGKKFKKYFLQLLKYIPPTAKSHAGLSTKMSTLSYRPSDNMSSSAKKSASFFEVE
# Sequence (P25095 whole entry): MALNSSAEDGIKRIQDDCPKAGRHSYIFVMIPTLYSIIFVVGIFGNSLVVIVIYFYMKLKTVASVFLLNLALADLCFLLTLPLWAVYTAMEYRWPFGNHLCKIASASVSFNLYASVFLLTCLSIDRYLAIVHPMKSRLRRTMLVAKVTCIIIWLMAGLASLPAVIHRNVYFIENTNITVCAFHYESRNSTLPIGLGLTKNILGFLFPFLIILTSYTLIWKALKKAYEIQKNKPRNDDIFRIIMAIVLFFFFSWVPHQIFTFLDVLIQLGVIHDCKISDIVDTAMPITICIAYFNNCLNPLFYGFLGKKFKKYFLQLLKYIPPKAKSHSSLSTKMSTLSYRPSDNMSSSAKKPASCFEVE
# assay-summary: Displacement of [125I]-Ang II from angiotensin II receptor type 1 in rat liver membranes
# Format: cell membranes, Membrane
Exercise: state measured Ki for each of the compounds provided.

| entry-smiles | reported-result |
| --- | --- |
| NC(N)=NCCC[C@H](NC(=O)[C@@H](N)CC(=O)O)C(=O)Nc1cccc2c1N[C@@H](Cc1ccc(O)cc1)C(=O)N(CC(=O)N[C@@H](Cc1c[nH]cn1)C(=O)N1CCC[C@H]1C(=O)N[C@@H](Cc1ccccc1)C(=O)O)C2 | > 10 µM |

Please look at the following compound next.
## Task Param item = `CC[C@@H](C)[C@@H](C(=O)N[C@@H](Cc1c[nH]cn1)C(=O)N1CCC[C@H]1C(=O)N[C@@H](Cc1ccccc1)C(=O)O)N1Cc2cccc(NC(=O)[C@@H](NC(=O)[C@H](CCCN=C(N)N)NC(=O)[C@@H](N)CC(=O)O)C(C)C)c2N[C@@H](Cc2ccc(O)cc2)C1=O` ; retrieve measured Ki.
## Result > 10 µM
